Value source: paper PMC9240354

Test: clinical
Conditions: both, human, in vivo, po, 300 mg
observable: Tmax (h)
One number for each entry, in h.

Give the measured Tmax of "O=C(O)c1ccc(F)c(F)c1Nc1ccc(I)cc1Cl" .
4

###

Experiment: in vivo
Details: C57BL/6, mouse, po, 25 mg/kg
observable: AUC (µg·h/mL)
Numbers only, in µg·h/mL.

Give the measured AUC of O=C(O)c1ccc(F)c(F)c1Nc1ccc(I)cc1Cl [zapnometinib] .
1390

###

Experiment: clinical
Conditions: both, human, in vivo, po, 600 mg, AUC0-t, healthy volunteers, single oral dose 600 mg, n = 8
observable: AUC(0-t) (µg·h/mL)
Give bare numbers, in µg·h/mL.

Give the measured AUC(0-t) of "O=C(O)c1ccc(F)c(F)c1Nc1ccc(I)cc1Cl" .
617

###

Assay: in vivo
Conditions: Syrian, hamster
observable: half-life (h)
Numbers only, in h.

Give the measured half-life of "O=C(O)c1ccc(F)c(F)c1Nc1ccc(I)cc1Cl" .
8

###

Assay: clinical
Conditions: both, human, in vivo, po, 600 mg
observable: Tmax (h)
One number for each entry, in h.

Give the measured Tmax of "O=C(O)c1ccc(F)c(F)c1Nc1ccc(I)cc1Cl" .
4

###

Test: in vivo
Settings: Syrian, hamster, po, 15 mg/kg
observable: AUC(0-t)
Provide the measurement as a number trailed by its unit.

Give the measured AUC(0-t) of "O=C(O)c1ccc(F)c(F)c1Nc1ccc(I)cc1Cl" .
121 µg·h/mL

###

Assay: clinical
Conditions: both, human, in vivo, po, 300 mg, AUC0–24 h, healthy volunteers, single oral dose 300 mg, n = 8
observable: AUC(0-t) (µg·h/mL)
Answers are plain numbers, in µg·h/mL.

Give the measured AUC(0-t) of "O=C(O)c1ccc(F)c(F)c1Nc1ccc(I)cc1Cl" .
157

###

Test: clinical
Details: both, human, in vivo, po, 600 mg
observable: half-life
Provide the measurement as a number trailed by its unit.

Give the measured half-life of "O=C(O)c1ccc(F)c(F)c1Nc1ccc(I)cc1Cl" .
21.9 h

###

Test: clinical
Conditions: both, human, in vivo, po, 100 mg, AUC0-t, healthy volunteers, single oral dose 100 mg, n = 8
observable: AUC(0-t) (µg·h/mL)
Numbers only, in µg·h/mL.

Give the measured AUC(0-t) of "O=C(O)c1ccc(F)c(F)c1Nc1ccc(I)cc1Cl" .
115

###

Assay: in vivo
Conditions: C57BL/6, mouse, po, 25 mg/kg, Tmax,2, mice, 25 mg/kg p.o. twice, second dose at 8 h
observable: Tmax (h)
Numbers only, in h.

Give the measured Tmax of "O=C(O)c1ccc(F)c(F)c1Nc1ccc(I)cc1Cl" .
10

###

Experiment: clinical
Conditions: both, human, in vivo, po, 100 mg
observable: Tmax

Give the measured Tmax of O=C(O)c1ccc(F)c(F)c1Nc1ccc(I)cc1Cl [zapnometinib] .
2 h

###

Experiment: clinical
Details: both, human, in vivo, po, 300 mg
observable: half-life
Provide the measurement as a number trailed by its unit.

Give the measured half-life of "O=C(O)c1ccc(F)c(F)c1Nc1ccc(I)cc1Cl" .
19.8 h

###

Experiment: in vivo
Settings: C57BL/6, mouse, po, 25 mg/kg
observable: Cmax
Provide the measurement as a number trailed by its unit.

Give the measured Cmax of O=C(O)c1ccc(F)c(F)c1Nc1ccc(I)cc1Cl [zapnometinib] .
69 µg/mL

###

Experiment: in vivo
Settings: Syrian, hamster, po, 15 mg/kg
observable: Tmax (h)
Give bare numbers, in h.

Give the measured Tmax of "O=C(O)c1ccc(F)c(F)c1Nc1ccc(I)cc1Cl" .
3

###

Experiment: clinical
Conditions: both, human, in vivo, po, 100 mg, AUC0–24 h, healthy volunteers, single oral dose 100 mg, n = 8
observable: AUC(0-t) (ng·h/mL)
One number for each entry, in ng·h/mL.

Give the measured AUC(0-t) of O=C(O)c1ccc(F)c(F)c1Nc1ccc(I)cc1Cl [zapnometinib] .
84000

###

Test: in vivo
Conditions: C57BL/6, mouse
observable: half-life
Provide the measurement as a number trailed by its unit.

Give the measured half-life of "O=C(O)c1ccc(F)c(F)c1Nc1ccc(I)cc1Cl" .
8 h

###

Assay: in vivo
Settings: beagle, dog, po, 30 mg/kg
observable: half-life

Give the measured half-life of "O=C(O)c1ccc(F)c(F)c1Nc1ccc(I)cc1Cl" .
240 to 300 min

###

Assay: clinical
Conditions: both, human, in vivo, po, 600 mg
observable: Cmax (ng/mL)
Give bare numbers, in ng/mL.

Give the measured Cmax of O=C(O)c1ccc(F)c(F)c1Nc1ccc(I)cc1Cl [zapnometinib] .
35000

###

Assay: clinical
Conditions: both, human, in vivo, po, 300 mg, AUC0-t, healthy volunteers, single oral dose 300 mg, n = 8
observable: AUC(0-t) (µg·h/mL)
Give bare numbers, in µg·h/mL.

Give the measured AUC(0-t) of O=C(O)c1ccc(F)c(F)c1Nc1ccc(I)cc1Cl [zapnometinib] .
241

###

Experiment: in vivo
Conditions: Syrian, hamster, po, 60 mg/kg
observable: Tmax (h)
One number for each entry, in h.

Give the measured Tmax of O=C(O)c1ccc(F)c(F)c1Nc1ccc(I)cc1Cl [zapnometinib] .
3
